assayed.system: Acyl-protein thioesterase 1 (Homo sapiens)
protocol: LYPLA1 inhibitors, retest, confirmation, counter-screen for PME1 inhibitor project, biochemical, fluorescence polarization, FP-Rh probe ABPP (AID 2233);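 also: loss of FP-Rh probe labeling of LYPLA1 seen as lower polarization; 0% = LYPLA1 with DMSO and 100% = wells lacking LYPLA1 enzyme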
assay.setup: recombinant LYPLA1, FP-Rh probe fluorescence polarization; at 5.9 µM; active compounds read high
The other results are listed elsewhere or left out.
measurement.type: inhibition (%)
Answer in %, number only, no unit symbol.

What the record says about `CCN1CCN(CCNC(=O)c2ccc3c(c2)NC(=O)/C(=C\c2ccc(OC)c(OC)c2)S3)CC1` : inhibition is 19.4

inhibition reading for `O=c1[nH]n(-c2ccc([N+](=O)[O-])cc2)c(=O)c2ccccc12` : 17.7

Notebook: `CSc1c(SCc2ccccc2)cnn(Cc2ccccc2)c1=O` , inhibition read as 2.84

Short answer for COc1cccc(NC(=O)N2CCCC2C(=O)NC2CCCCC2)c1 (stereo not given) : inhibition was 2.88

Recorded result, `Cc1cccc(N2CCN(C(=O)CN(C)S(=O)(=O)c3ccc4c(c3)CCC(=O)N4)CC2)c1C` , inhibition: 26.9
